# study-target: JAK2 (Homo sapiens (Human), UniProt O60674)
# Sequence (O60674 849-1124): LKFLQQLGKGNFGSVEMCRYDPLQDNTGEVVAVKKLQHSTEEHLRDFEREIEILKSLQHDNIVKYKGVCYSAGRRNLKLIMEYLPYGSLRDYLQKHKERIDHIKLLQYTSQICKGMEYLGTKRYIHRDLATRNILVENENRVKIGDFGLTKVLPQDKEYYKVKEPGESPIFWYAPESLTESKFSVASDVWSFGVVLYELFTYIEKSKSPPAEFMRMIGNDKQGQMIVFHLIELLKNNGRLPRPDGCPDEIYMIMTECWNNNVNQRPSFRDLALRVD
# assay-details: JAK kinase assay (HTRF), JAK2
# details: catalytic domain, ATP at Km (4 μM)
assay-readout: pEC50
# log scale: pEC50 equals minus log10 of the concentration in mol/L

> print(dat)
                                   molecule  recorded.value
1  C[C@H](NC(=O)[C@H]1CCN(c2ncnc3[nH]ccc23)CC12CC2)[C@H](O)c1ccc(F)cn1 [Example 107]            7.84

Request: Form field: reported pEC50 of O=C(OCC1CC(F)(F)C1)C1CCN(c2ncnc3[nH]ccc23)CC12CC2 (centres unmarked) [Example 153]
Result: 8.49

Request: Follow-up entry: O=C(N[C@H](CO)C1CCC1)[C@H]1CCN(c2ncnc3[nH]ccc23)CC12CC2 [Example 147]
Result: 6.92

Request: Follow-up entry: O=C(NCC1(CO)CCCC1)C1CCN(c2ncnc3[nH]ccc23)CC12CC2 (centres unmarked) [Example 58]
Result: 7.89

Request: Follow-up entry: O=C(NC[C@@H](O)c1ccc(F)cc1)[C@H]1CCN(c2ncnc3[nH]ccc23)CC12CC2 [Example 7]
Result: 8.77

Request: Follow-up entry: O=C(N[C@H](CO)C(=O)OCC1CCCC1)[C@H]1CCN(c2ncnc3[nH]ccc23)CC12CC2 [Example 87]
Result: 7.59

Request: Follow-up entry: O=C(N[C@@H](CO)C1CCC1)[C@H]1CCN(c2ncnc3[nH]ccc23)CC12CC2 [Example 148]
Result: 6.86

Request: Follow-up entry: O=C(NC[C@H](O)C1CCCCC1)[C@H]1CCN(c2ncnc3[nH]ccc23)CC12CC2 [Example 15]
Result: 8.77
